- assayed.system: AuroraB (Homo sapiens)
- Sequence (Q96GD4 whole entry): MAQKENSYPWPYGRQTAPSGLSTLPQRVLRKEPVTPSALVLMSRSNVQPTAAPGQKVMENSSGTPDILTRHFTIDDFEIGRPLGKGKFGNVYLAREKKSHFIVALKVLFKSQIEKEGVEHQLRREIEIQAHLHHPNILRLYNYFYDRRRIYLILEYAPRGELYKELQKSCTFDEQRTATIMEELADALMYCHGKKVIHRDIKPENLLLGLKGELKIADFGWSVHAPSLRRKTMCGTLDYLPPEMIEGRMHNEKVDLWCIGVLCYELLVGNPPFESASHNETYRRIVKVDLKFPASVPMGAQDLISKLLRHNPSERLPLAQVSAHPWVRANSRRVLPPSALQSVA
- protocol: Aurora B kinase assay (DELFIA)
- run.parameters: 15 μM ATP
- Description: Aurora activity was determined using a Dissociative Enhanced Lanthanide Fluoro Immuno Assay (DELFIA) with a GSK3-derived biotinylated peptide. The amount of phosphorylated peptide produced is quantified by means of a phospho-specific primary antibody and europium-labelled anti-rabbit IgG antibody using time-resolved fluorescence at λex=337 nm, λem=620 nm. […]
pIC50: −log10 of the molar value.
test.readout: pIC50

Quick one: pIC50 of O=C(Nc1scnc1-c1nc2ccccc2[nH]1)c1c(F)cccc1F [Example 1] ?
> 7.00

----------
- assayed.system: Activated CDK2/CyclinA (Homo sapiens)
- protocol: Activated CDK2/CyclinA kinase inhibitory activity assay
- run.parameters: Example 10
pIC50: −log10 of the molar value.
test.readout: pIC50

pIC50 of O=C(Nc1scnc1-c1nc2ccccc2[nH]1)c1c(F)cccc1F on Activated CDK2/CyclinA (Homo sapiens)?
> 5.00

Next: O=C(Nc1scnc1-c1nc2ccc(CN3CCOCC3)cc2[nH]1)c1c(F)cccc1F
> 5.00
